Source of measurements: the supplement of paper PMC6757056

B1: library; a variant is named by its letters at N, in order (parent)
chain: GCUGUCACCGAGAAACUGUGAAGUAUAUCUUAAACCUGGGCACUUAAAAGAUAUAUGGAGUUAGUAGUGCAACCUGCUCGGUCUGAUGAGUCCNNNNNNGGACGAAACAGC

Variants of: B1
PROCEDURE_TEXT: normalized RNA/DNA level without ligand (relative to sTRSVctl = 100) (log10 (% of sTRSVctl)); HEK293T; ligand: cyclic di-GMP (c-di-GMP-II aptamer); higher = less ribozyme self-cleavage, higher mRNA level
RUN_CONDITIONS: reporter: mCherry (pCS4076), ligand present: no
PARAMETER_MEASURED: normalized RNA/DNA level without ligand (log10)

# MUTATION_LABEL, MEASURED_RESULT
data = [
    ("CGAGAA", 1.35),
    ("AGCGCG", 1.71),
    ("CCCUAA", 1.45),
    ("GCGCCC", 1.79),
    ("CAUUAA", 1.26),
    ("GGUGCA", 1.78),
    ("AUUGGC", 1.67),
    ("CUUAGG", 1.79),
    ("AAUAAA", 1.47),
    ("UUGAUU", 1.7),
    ("GCCAUA", 1.55),
]
